System: 3D7-MR4 trophozoite parasite-infected RBCs
Test: Metabolomic profiling (hydrophilic metabolite changes, UHPLC-MS)
Assay type: cell-based, Plasmodium falciparum
Conditions: metabolite NAD+
Label rule, in plain words: Log2(fold change) NAD+ of -0.002 and up is Satisfied, under -0.002 is Not satisfied.

Reference set, count: 4
COc1cc(-c2nc(-c3ccccc3)c(-c3ccccc3)[nH]2)ccc1OCCN(C)C [MMV027496]: Not satisfied
OC(c1cc(C(F)(F)F)nc2c(C(F)(F)F)cccc12)C1CCCCN1 (centres unmarked) [Mefloquine, reference compound]: Not satisfied
FC(F)(F)c1cccc(Nc2nc3ccccc3nc2Nc2cccc(C(F)(F)F)c2)c1 [MMV665794]: Not satisfied
CCCN(CCC)CC(O)COc1ccccc1C(=O)Nc1ccccc1 (centres unmarked) [MMV006455]: Satisfied

Q. Could you please find out whether Cc1cc(Nc2ccc(OCc3ccccc3)cc2)nc2cc(O)ccc12 [MMV007181] has Log2(fold change) NAD+ that meets -0.002 or exceeds it?
A. Not satisfied
